ASSAY SYSTEM: KRas^G12A (Homo sapiens, UniProt P01116, G12A)
Construct: Biotinylated KRas (corresponding to amino acids 1-169, produced at Accelegan Inc.); biotin (biotinylated); purchased Accelegan Inc
Sequence (P01116 1-169 isoform P01116-2 G12A): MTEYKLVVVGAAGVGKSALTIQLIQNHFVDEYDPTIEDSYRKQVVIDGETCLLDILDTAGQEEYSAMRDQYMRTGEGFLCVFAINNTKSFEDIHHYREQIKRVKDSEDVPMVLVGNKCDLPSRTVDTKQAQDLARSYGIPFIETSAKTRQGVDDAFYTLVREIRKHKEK
ASSAY TEXT: KRas binding assay (TR-FRET tracer displacement), KRas G12A
CONDITION CONTEXT: single point, 10 nM compound, TR-FRET
MEASUREMENT LABEL: inhibition at 0.01 µM (%)

MOLECULE | inhibition at 0.01 µM [%]
CCc1c(F)ccc2cc(O)cc(-c3ncc4c(N5CC6CC(O)C(C6)C5)nc(OC[C@]56CCCN5[C@H](COC(=O)N(C)C)CC6)nc4c3F)c12 (some centres unmarked) [Example 707] | 76
CCNC(=O)OC[C@@H]1CC[C@]2(COc3nc(N4CCC[C@@](C)(O)C4)c4cnc(-c5cc(O)cc6ccc(F)c(CC)c56)c(F)c4n3)CCCN12 [Example 717] | 90
CCc1c(F)ccc2cc(O)cc(-c3ncc4c(N5CCCCn6nc(C(=O)N7CCOCC7)cc6C5)nc(OC[C@@]56CCCN5C[C@H](F)C6)nc4c3F)c12 [Example 690] | 93
CCc1c(F)ccc2cc3[nH]ncc3c(-c3ncc4c(N5CCC[C@@](C)(O)C5)nc(OC[C@@]56CCCN5C[C@H](F)C6)nc4c3F)c12 [Example 776] | 80
CCc1c(F)ccc2cc(O)cc(-c3ncc4c(N5CCCC6(C5)NC(=O)NC6=O)nc(OC[C@]56CCCN5[C@H](COC(=O)N(C)C)CC6)nc4c3F)c12 (some centres unmarked) [Example 709] | 80
CCc1c(F)ccc2cc(O)cc(-c3ncc4c(N5CCC[C@@]6(CCO6)C5)nc(OCC5(CN(C)C)CC5)nc4c3F)c12 [Example 700] | 83
CCc1c(F)ccc2cc(O)cc(-c3ncc4c(N5CCOCC(C)(O)C5)nc(OCC56CCCN5[C@H](COC(=O)N(C)C)CC6)nc4c3F)c12 (stereo in doubt) [Example 710] | 74
CCc1c(F)ccc2cc(O)cc(-c3ncc4c(N5CCCn6nc(C(=O)N(C)C)cc6C5)nc(OC[C@]56CCCN5[C@H](COC(=O)N(C)C)CC6)nc4c3F)c12 [Example 714] | 89

---

ASSAY SYSTEM: KRas^G12R (Homo sapiens, UniProt P01116, G12R)
Construct: Biotinylated KRas (corresponding to amino acids 1-169, produced at Accelegan Inc.); biotin (biotinylated); purchased Accelegan Inc
Sequence (P01116 1-169 isoform P01116-2 G12R): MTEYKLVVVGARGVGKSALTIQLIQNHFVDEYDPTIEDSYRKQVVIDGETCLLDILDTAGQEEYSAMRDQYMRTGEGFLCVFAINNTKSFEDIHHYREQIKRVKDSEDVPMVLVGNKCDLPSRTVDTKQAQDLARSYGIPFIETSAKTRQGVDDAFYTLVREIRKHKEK
ASSAY TEXT: KRas binding assay (TR-FRET tracer displacement), KRas G12R
MEASUREMENT LABEL: IC50 (nM)

Worked examples, 4 compounds total:
COMPOUND | IC50 (nM)
CCc1cccc2cc3[nH]ncc3c(-c3ncc4c(N5C[C@@H]6C[C@H](C5)[C@H](O)C6)nc(OC[C@@]56CCCN5C[C@H](F)C6)nc4c3F)c12 | 3
Nc1nc2c(-c3ncc4c(N5CCCC6(C5)NC(=O)NC6=O)nc(OCC56CCCN5CCC6)nc4c3F)ccc(F)c2s1 (stereo not drawn) | 640
CCc1c(F)ccc2cc(O)cc(-c3ncc4c(NC[C@@H]5C[C@H](CO)NC5=O)nc(OC[C@@]56CCCN5C[C@H](F)C6)nc4c3F)c12 | 37
CCc1c(F)ccc2cc(O)cc(-c3ncc4c(N5CCCC(C6CCNC6=O)C5)nc(OC[C@@]56CCCN5C[C@H](F)C6)nc4c3F)c12 (single isomer, unassigned) [Example 617] | 4

a = CCc1c(F)ccc2cc(O)cc(-c3ncc4c(NCc5cc(C(=O)N(C)C)nn5C5COC5)nc(OC[C@@]56CCCN5C[C@H](F)C6)nc4c3F)c12
b = O[C@H]1CCCN(c2nc(OCC34CCCN3CCC4)nc3c(F)c(-c4cccc5cccc(Cl)c45)ncc23)C1
c = Cc1cc2[nH]nnc2c(-c2ncc3c(N4CCCC5(C4)NC(=O)NC5=O)nc(OCC45CCCN4CCC5)nc3c2F)c1C (stereo not drawn)
d = CCc1c(F)ccc2cc(O)cc(-c3ncc4c(N5CC6CCC(C5)C6(F)F)nc(OC[C@@]56CCCN5C[C@H](F)C6)nc4c3F)c12
e = CCc1c(F)ccc2cc(O)cc(-c3ncc4c(N5C[C@@H]6[C@@H](C(N)=O)NC(=O)[C@@H]6C5)nc(OC[C@@]56CCCN5C[C@H](F)C6)nc4c3F)c12
Input: Your job: order these 5 records by IC50, ascending. Arrange the labels as the request states and list them.
Output: a, d, e, c, b
(a: 4 nM, d: 26 nM, e: 139 nM, c: 1380 nM, b: 11200 nM)

---

ASSAY SYSTEM: KRas^G12D (Homo sapiens, UniProt P01116, G12D)
Construct: Biotinylated KRas (corresponding to amino acids 1-169, produced at Accelegan Inc.); biotin (biotinylated); purchased Accelegan Inc
Sequence (P01116 1-169 isoform P01116-2 G12D): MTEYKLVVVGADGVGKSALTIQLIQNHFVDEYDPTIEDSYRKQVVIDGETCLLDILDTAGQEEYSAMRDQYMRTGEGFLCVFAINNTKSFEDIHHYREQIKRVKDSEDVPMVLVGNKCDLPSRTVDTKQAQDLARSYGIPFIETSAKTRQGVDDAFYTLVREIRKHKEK
ASSAY TEXT: KRas binding assay (TR-FRET tracer displacement), KRas G12D
MEASUREMENT LABEL: IC50 (nM)

COMPOUND | IC50, nM
CCc1c(F)ccc2cc(O)cc(-c3ncc4c(N5CCCn6nc(P(C)(C)=O)cc6C5)nc(OC[C@@]56CCCN5C[C@H](F)C6)nc4c3F)c12 | 2

a = Cc1cc2[nH]ncc2c(-c2ncc3c(N4CCCC5(CC(O)C5)C4)nc(OCC45CCCN4CCC5)nc3c2F)c1C (stereo not shown)
b = CCc1c(F)ccc2cc(O)cc(-c3ncc4c(N5CC6CCC(C5)C6CC(=O)NC)nc(OC[C@@]56CCCN5C[C@H](F)C6)nc4c3F)c12 (stereo partly shown)
Input: Problem: Given the entries a and b , determine which has the lower reported IC50. Write down the label attached to your selection.
Output: b

---

ASSAY SYSTEM: KRas^WT (Homo sapiens)
Construct: Biotinylated KRas (corresponding to amino acids 1-169, produced at Accelegan Inc.); biotin (biotinylated); purchased Accelegan Inc
Sequence (P01116 1-169 isoform P01116-2): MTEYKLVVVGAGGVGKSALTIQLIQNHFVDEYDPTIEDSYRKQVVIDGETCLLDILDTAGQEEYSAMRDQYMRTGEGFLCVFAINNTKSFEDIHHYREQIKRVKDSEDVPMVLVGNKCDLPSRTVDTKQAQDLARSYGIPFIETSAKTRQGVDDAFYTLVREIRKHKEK
ASSAY TEXT: KRas binding assay (TR-FRET tracer displacement), KRas WT
CONDITION CONTEXT: single point, 10 nM compound, TR-FRET
MEASUREMENT LABEL: inhibition at 0.01 µM (%)

COMPOUND | UNIT STRING | inhibition at 0.01 µM
CCc1c(F)ccc2cc(O)cc(-c3ncc4c(N5C[C@@H]6C[C@H](C5)[C@H](O)[C@@H]6O)nc(OC[C@@]56CCCN5C[C@H](F)C6)nc4c3F)c12 | % | 97
CCc1c(F)ccc2cc(O)cc(-c3ncc4c(N5CC6CCC(C5)C6C#N)nc(OC[C@@]56CCCN5C[C@H](F)C6)nc4c3F)c12 (some centres unmarked) | % | 73
CCc1c(F)ccc2cc3[nH]ncc3c(-c3ncc4c(N5CCC[C@@](C)(O)C5)nc(OC[C@@]56CCCN5C[C@H](F)C6)nc4c3F)c12 | % | 78

1 = Oc1cc(-c2ncc3c(N4C[C@@H]5C[C@H](C4)[C@H](O)C5)nc(OC[C@@]45CCCN4C[C@H](F)C5)nc3c2F)c2ccccc2c1
2 = CCc1c(F)ccc2cc(O)cc(-c3ncc4c(N5CCOCC(C)(O)C5)nc(OCC56CCCN5[C@H](COC(=O)N(C)C)CC6)nc4c3F)c12 (stereo in doubt)
Input: Lab note: check whether 1 or 2 shows the higher recorded inhibition at 0.01 µM. Write down the label attached to your selection.
Output: 2
(2: 80%, 1: 44%)

---

This listing pairs compounds with measured IC50.
ASSAY SYSTEM: KRas^G12D (Homo sapiens, UniProt P01116, G12D)
Construct: Biotinylated KRas (corresponding to amino acids 1-169, produced at Accelegan Inc.); biotin (biotinylated); purchased Accelegan Inc
ASSAY TEXT: KRas binding assay (TR-FRET tracer displacement), KRas G12D

Worked examples, 2 compounds total:
COMPOUND | ASSAY SYSTEM | MEASUREMENT LABEL | MEASURED
CCc1c(F)ccc2cc(O)cc(-c3ncc4c(N5C[C@@H]6C[C@H](C5)[C@H](O)C6)nc(OCC56CCCN5C/C(=C/F)C6)nc4c3F)c12 (stereo partly drawn) | KRas^G12D (Homo sapiens, UniProt P01116, G12D) | IC50 | < 2 nM
CCc1c(F)ccc2cc(O)cc(-c3ncc4c(N5CCC[C@@](C)(O)C5)nc(OC[C@@]56CCCN5[C@H](COCC5CCC5)CC6)nc4c3F)c12 | KRas^G12D (Homo sapiens, UniProt P01116, G12D) | IC50 | < 2 nM

Let's switch to this compound now.
Input: Requested field: IC50. Item: CCc1cccc2cc3[nH]ncc3c(-c3ncc4c(N5CCCC6(CNC(=O)N6)C5)nc(OC[C@@]56CCCN5C[C@H](F)C6)nc4c3F)c12 (stereo partly drawn)
Output: < 2 nM
